Answer each item with its documented PBM 8-mer E-score.
System: WT Max(13-93) synthetic (M65Nle)
assayComment: PBM 8-mer E-score (E-score (rank enrichment, -0.5 to 0.5)); higher = stronger preferential binding
Whole data set: some 33,000 sequences, median “E-score (rank enrichment, -0.5 to 0.5)” near -0.0075, cut for the highest 2% near 0.23. The list comes from a sample in which the highest values are over-represented; it also holds close analogues and randomly drawn sequences.
One number for each entry.

Illustrative cases are given below, each with its answer.
What reported PBM 8-mer E-score corresponds to CGTGTCTC on WT Max(13-93) synthetic (M65Nle)?
0.201

What reported PBM 8-mer E-score corresponds to AACGTGCT on WT Max(13-93) synthetic (M65Nle)?
0.181

What reported PBM 8-mer E-score corresponds to ATCTTGGA on WT Max(13-93) synthetic (M65Nle)?
-0.118

What reported PBM 8-mer E-score corresponds to AGACAGCG on WT Max(13-93) synthetic (M65Nle)?
-0.103

What reported PBM 8-mer E-score corresponds to ATCTTCAG on WT Max(13-93) synthetic (M65Nle)?
0.0326

What reported PBM 8-mer E-score corresponds to ATAACCAC on WT Max(13-93) synthetic (M65Nle)?
0.288

// each sequence listed below needs its PBM 8-mer E-score
1. CCACCTGG
2. ATAACAAC
3. AGTGGAAA
4. CGGCAACA
5. TGTGGAAA
6. ATTATTAA
7. CAGGTGCG

0.0162
0.265
0.164
-0.15
0.249
0.172
-0.186

----------
Answer each item with its documented PBM 8-mer E-score.
Tested on: WT Max(13-93) synthetic (M65Nle)
assayComment: PBM 8-mer E-score (E-score (rank enrichment, -0.5 to 0.5)); higher = stronger preferential binding
The full ranking holds about 33,000 sequences; the median of “E-score (rank enrichment, -0.5 to 0.5)” is about -0.0075, and the highest 2% start at about 0.23. This is one part of a sample in which the highest values are shown more often than they occur.
Numbers only.

// each sequence listed below needs its PBM 8-mer E-score
1. GTGCACAA
2. CGCGTGTC

1. -0.0677
2. 0.232

// each sequence listed below needs its PBM 8-mer E-score
1. CTAAACAA
2. CACGTGTC
3. AACGTGTA

1: 0.0536; 2: 0.482; 3: 0.26

// each sequence listed below needs its PBM 8-mer E-score
1. AACCATGG
2. GTTTCGTA
3. CAATATGA

1. 0.0463
2. 0.0743
3. 0.183

----------
System: WT Max(13-93) synthetic (M65Nle)
assayComment: PBM 8-mer E-score (E-score (rank enrichment, -0.5 to 0.5)); higher = stronger preferential binding
The full ranking holds about 33,000 sequences; the median of “E-score (rank enrichment, -0.5 to 0.5)” is about -0.0075, and the highest 2% start at about 0.23. The sample holds the highest values, similar sequences and a random draw of the others, so the mix is not that of the screen.
Answer each item with its documented PBM 8-mer E-score.

Would you kindly share the measured PBM 8-mer E-score for CTCATTAA ?
0.204

Would you kindly share the measured PBM 8-mer E-score for AGCATTAA ?
0.173

Would you kindly share the measured PBM 8-mer E-score for AATTTAGC ?
0.121

Would you kindly share the measured PBM 8-mer E-score for CCTAATTA ?
0.138

// each sequence listed below needs its PBM 8-mer E-score
1. TGCATTAA
2. AGCGGAAA
3. CTGTAACA

0.26
-0.00668
0.044

----------
Test system: WT Max(13-93) synthetic (M65Nle)
assayComment: PBM 8-mer E-score (E-score (rank enrichment, -0.5 to 0.5)); higher = stronger preferential binding
Whole data set: some 33,000 sequences, median “E-score (rank enrichment, -0.5 to 0.5)” near -0.0075, cut for the highest 2% near 0.23. Only a selection was taken, and the highest values are over-represented in it overall.
# cutoff 0.04 applies to PBM 8-mer E-score; >= gives y, < gives n

PBM 8-mer E-score >= 0.04 for ATGCCGCC ?
n

Now let's try a different one.
PBM 8-mer E-score >= 0.04 for GTGCTTGA ?
n

----------
Test system: WT Max(13-93) synthetic (M65Nle)
assayComment: PBM 8-mer E-score (E-score (rank enrichment, -0.5 to 0.5)); higher = stronger preferential binding
Over roughly 33,000 sequences, “E-score (rank enrichment, -0.5 to 0.5)” has its median near -0.0075; the highest 2% begin near 0.23. Many of the other results were omitted from the sample, so the highest values are more common in it than they were.
# cutoff 0.1 applies to PBM 8-mer E-score; >= gives met, < gives not met

PBM 8-mer E-score >= 0.1 for CCATGGTA ?
not met

PBM 8-mer E-score >= 0.1 for ACCCTGTC ?
not met

PBM 8-mer E-score >= 0.1 for CAATAAAC ?
met

PBM 8-mer E-score >= 0.1 for AACGTTTA ?
met

PBM 8-mer E-score >= 0.1 for ACATGTAC ?
met

PBM 8-mer E-score >= 0.1 for ACAAGCCA ?
not met

PBM 8-mer E-score >= 0.1 for CAATGTAC ?
not met

PBM 8-mer E-score >= 0.1 for CCACGTGG ?
met

---
PBM 8-mer E-score >= 0.1 for CGTAGGCA ?
not met

----------
Answer each item with its documented PBM 8-mer E-score.
Test system: WT Max(13-93) synthetic (M65Nle)
assayComment: PBM 8-mer E-score (E-score (rank enrichment, -0.5 to 0.5)); higher = stronger preferential binding
The full ranking holds about 33,000 sequences; the median of “E-score (rank enrichment, -0.5 to 0.5)” is about -0.0075, and the highest 2% start at about 0.23. This excerpt belongs to a sample that is enriched for the highest values.
One number for each entry.

Would you kindly share the measured PBM 8-mer E-score for CATATTAC ?
0.156

// each sequence listed below needs its PBM 8-mer E-score
1. AGGTTTTG
2. ACATGATG
3. TGTAAGAA

[0.0094, 0.0731, 0.121]

// each sequence listed below needs its PBM 8-mer E-score
1. ATAACAAG
2. GAACAAGA

[0.223, 0.137]

----------
Test system: WT Max(13-93) synthetic (M65Nle)
assayComment: PBM 8-mer E-score (E-score (rank enrichment, -0.5 to 0.5)); higher = stronger preferential binding
In all, about 33,000 sequences were measured (“E-score (rank enrichment, -0.5 to 0.5)”: median about -0.0075, highest 2% from about 0.23 on). The sample as a whole holds a higher share of the highest values than the screen did.
Answer each item with its documented PBM 8-mer E-score.
Numbers only.

Illustrative cases are given below, each with its answer.
Would you kindly share the measured PBM 8-mer E-score for GTTAGAGA ?
-0.0703

Would you kindly share the measured PBM 8-mer E-score for AGTGTGTA ?
0.101

Would you kindly share the measured PBM 8-mer E-score for ATCATAAG ?
0.172

Would you kindly share the measured PBM 8-mer E-score for CATGTATC ?
0.185

Would you kindly share the measured PBM 8-mer E-score for ATAATCAC ?
0.04

// each sequence listed below needs its PBM 8-mer E-score
1. CGTGTTTA
2. GGTGTTTA
3. AATCCTCT
4. ATATACAC
5. GTATATAA
6. CCCTCCTA

0.274
-0.0165
0.079
0.161
0.102
0.0972

// each sequence listed below needs its PBM 8-mer E-score
1. CATGTTTC
2. ACGGGGTC

[0.192, -0.061]

----------
Tested on: WT Max(13-93) synthetic (M65Nle)
assayComment: PBM 8-mer E-score (E-score (rank enrichment, -0.5 to 0.5)); higher = stronger preferential binding
In all, about 33,000 sequences were measured (“E-score (rank enrichment, -0.5 to 0.5)”: median about -0.0075, highest 2% from about 0.23 on). The sample holds the highest values, similar sequences and a random draw of the others, so the mix is not that of the screen.
# cutoff 0.2 applies to PBM 8-mer E-score; >= gives yes, < gives no

Some solved entries appear below for comparison.
PBM 8-mer E-score >= 0.2 for ATCACCCC ?
no

PBM 8-mer E-score >= 0.2 for GACAATTA ?
no

PBM 8-mer E-score >= 0.2 for ACATGTAT ?
yes

---
PBM 8-mer E-score >= 0.2 for CCACGTCC ?
no

PBM 8-mer E-score >= 0.2 for GCATGTAA ?
yes

PBM 8-mer E-score >= 0.2 for AAGGCTCT ?
no

PBM 8-mer E-score >= 0.2 for ATAAAGCG ?
no

PBM 8-mer E-score >= 0.2 for CGACGTGC ?
no

PBM 8-mer E-score >= 0.2 for CCCCTCCA ?
no

PBM 8-mer E-score >= 0.2 for GTTAAGTA ?
no

PBM 8-mer E-score >= 0.2 for AACGAGAA ?
yes

PBM 8-mer E-score >= 0.2 for GCATGGTA ?
no

PBM 8-mer E-score >= 0.2 for CCATGGTC ?
no

PBM 8-mer E-score >= 0.2 for TATGTTGA ?
yes

PBM 8-mer E-score >= 0.2 for CACACGCA ?
no
